Molecular target: Prostaglandin E2 receptor EP2 subtype (Homo sapiens, UniProt P43116)
Sequence (P43116 whole entry): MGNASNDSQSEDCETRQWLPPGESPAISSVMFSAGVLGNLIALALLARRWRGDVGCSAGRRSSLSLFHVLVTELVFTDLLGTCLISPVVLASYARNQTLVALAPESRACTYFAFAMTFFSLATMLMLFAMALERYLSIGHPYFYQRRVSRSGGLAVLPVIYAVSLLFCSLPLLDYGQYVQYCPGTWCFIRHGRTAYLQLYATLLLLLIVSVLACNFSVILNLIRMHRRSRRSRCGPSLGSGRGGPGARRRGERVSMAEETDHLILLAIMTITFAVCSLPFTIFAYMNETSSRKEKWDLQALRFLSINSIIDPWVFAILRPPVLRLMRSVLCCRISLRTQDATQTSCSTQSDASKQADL
Assay: Binding affinity was determined against prostanoid EP2 receptor
Outcome Measure: Ki (µM)

Illustrative cases are given below, each with its answer.
> print(dat)
                                   compound  numeric.readout
1  O=C(O)CCCCCCN1C(=O)CC[C@@H]1/C=C/C(O)C1(c2ccccc2)CC1 (some centres undefined)              164
2  O=C(O)CCCCCCN1C(=O)CC[C@@H]1/C=C/C(O)c1cccc(-c2ccc(Cl)cc2)c1 (some centres undefined)              4.2
3  CCCCC[C@H](O)/C=C/[C@H]1CCC(=O)N1CCCCCCC(=O)O              4.5
4  O=C(O)CCCCCCN1C(=O)CC[C@@H]1/C=C/C(O)Cc1ccccc1 (some centres undefined)               31

a: O=C(O)CCCCCCN1C(=O)CC[C@@H]1/C=C/C(O)c1cccc(-c2ccccc2Cl)c1 (some centres undefined)
b: O=C(O)CCCCCCN1C(=O)CC[C@@H]1/C=C/[C@@H](O)Cc1cccc(C(F)(F)F)c1
query: For a and b , which recorded Ki is lower? Indicate which entry you chose by stating its label.
result: b
